Values were extracted from ChEMBL document CHEMBL2034902.

The reader will find reported Activity values listed item by item below.
# Test system: CCRF-CEM
# test_method_notes: Cytoprotective activity against DEM-induced ROS production in human CEM cells assessed as cells with intact mitochondrial potential at 1 uM pretreated for 16 hrs prior DEM challenge measured after 120 mins by TMRM-based flow cytometry (reference value: 94%)
# Format: functional
Please reply with the bare figure in % and do not write the unit itself.

Please review the entries below; each comes with its answer.
>>> recorded_value("CCCCCc1nc2c(c(C)c1OC(C)=O)CCN2C")
30
>>> recorded_value("CCCCCCCCCCc1nc2c(c(C)c1OC(C)=O)CCN2C")
75
>>> recorded_value("CCCCCCCCCCCCCCCCc1nc2c(c(C)c1OC(C)=O)CCN2C")
50

Task: Fetch value of Activity on CCRF-CEM for "CCCCCCCCCCc1nc2c(c(C)c1O)CCN2C.O=C(O)C(F)(F)F" .
Result: 80

Task: Fetch value of Activity on CCRF-CEM for "CCCCCCCCCCCCCCCCc1nc2c(c(C)c1O)CCN2C.O=C(O)C(F)(F)F" .
Result: 46

Task: Fetch value of Activity on CCRF-CEM for "CCCCCc1nc2c(c(C)c1O)CCN2C.O=C(O)C(F)(F)F" .
Result: 40
